The reported measurements were obtained from PubChem BioAssay AID1996.

# setupConditions: buffer; pH 7.4; 200.0 µM

{"smilesData": "CC(=O)c1sc(-c2ccccc2)cc1N", "unitDescriptor": "µg/mL", "comparativeSign": "=", "solubility kinetic": 28.4}
{"smilesData": "Cc1nc(SCc2ccccc2F)c2oc3ccccc3c2n1", "unitDescriptor": "µg/mL", "comparativeSign": "<", "solubility kinetic": 0.3}
{"smilesData": "NS(=O)(=O)c1ccc(CNC(=O)CSc2nc3ccc(Cl)cc3[nH]2)cc1", "unitDescriptor": "µg/mL", "comparativeSign": "=", "solubility kinetic": 10.3}
{"smilesData": "COc1ccc(S(=O)(=O)Nc2ncccn2)cc1", "unitDescriptor": "µg/mL", "comparativeSign": "=", "solubility kinetic": 23.1}
{"smilesData": "Cc1ccccc1C(=O)N1CCC(C(=O)NC2CCCCC2)CC1", "unitDescriptor": "µg/mL", "comparativeSign": "=", "solubility kinetic": 44.4}
{"smilesData": "O=C(c1ccc(Cn2cc([N+](=O)[O-])cn2)o1)N1CCCC1", "unitDescriptor": "µg/mL", "comparativeSign": ">", "solubility kinetic": 43.5}
